target: human CH24H (Homo sapiens); construct: Using Full-Length Mammalian Gene Collection No. 4819975 (Invitrogen) as a template; made in house; host or cells: FreeStyle 293-F cells (transient transfection); cell lysate supernatant, not purified; assay: Measurement of CH24H inhibitory activity (24-HC produced from [14C] cholesterol by human CH24H lysate); assay type: biochemical; conditions: test compound 1 μM, [14C] cholesterol 15 μM, 37° C., 5 hr, read-out: Inhibitory Rate (%) in 1 μM
Sequence (Q9Y6A2 whole entry): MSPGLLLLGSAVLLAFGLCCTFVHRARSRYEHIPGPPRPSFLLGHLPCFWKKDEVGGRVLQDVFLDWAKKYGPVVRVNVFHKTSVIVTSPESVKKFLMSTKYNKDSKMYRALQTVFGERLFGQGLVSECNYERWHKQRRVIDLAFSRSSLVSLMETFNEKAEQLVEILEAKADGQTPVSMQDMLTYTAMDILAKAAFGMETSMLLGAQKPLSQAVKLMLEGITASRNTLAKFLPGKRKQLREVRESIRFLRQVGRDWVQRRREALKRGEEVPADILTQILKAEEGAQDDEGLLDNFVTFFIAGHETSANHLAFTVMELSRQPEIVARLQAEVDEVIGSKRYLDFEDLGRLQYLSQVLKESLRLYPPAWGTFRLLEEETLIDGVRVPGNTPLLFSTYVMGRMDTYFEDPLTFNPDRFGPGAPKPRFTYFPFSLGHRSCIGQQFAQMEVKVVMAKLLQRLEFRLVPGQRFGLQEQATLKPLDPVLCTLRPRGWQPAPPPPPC
parameter: inhibition at 1 µM (%)

>>> reported_measurement("O=C(c1cnc2c(-c3cnco3)cc(C(F)(F)F)cn12)N1CC[C@H](OCC(F)F)C1 [Example 90]")
91
>>> reported_measurement("O=C(Nc1ccccc1)c1cnc2c(-c3cnco3)cc(C(F)(F)F)cn12 [Example 74]")
96
>>> reported_measurement("O=C(c1cnc2c(-c3cnco3)cc(C3CC3)cn12)N1C2CCC1COC2 [Example 143]")
91
>>> reported_measurement("CCNC(=O)c1c(C)nc2c(-c3cnco3)cc(C(F)(F)F)cn12 [Example 98]")
69
>>> reported_measurement("O=C(C1CC1)n1ccc2c(-c3cnco3)cc(C(F)(F)F)cc21 [Example 4]")
88
>>> reported_measurement("O=C(c1cnc2c(-c3cnco3)cc(C(F)F)cn12)N1C[C@@H]2C[C@H]1CO2 [Example 171]")
91
>>> reported_measurement("O=C(c1cnc2c(-c3cnco3)cc(C(F)(F)F)cn12)N1CC(F)C1 [Example 177]")
86
>>> reported_measurement("O=C(c1cnc2c(-c3cnco3)cc(-c3cnco3)cn12)N1C[C@@H]2C[C@H]1CO2 [Example 93]")
68

====

molecular target: human CH24H (Homo sapiens); construct: Using Full-Length Mammalian Gene Collection No. 4819975 (Invitrogen) as a template; made in house; host or cells: FreeStyle 293-F cells (transient transfection); cell lysate supernatant, not purified; assay: Measurement of CH24H inhibitory activity (24-HC produced from [14C] cholesterol by human CH24H lysate); format: biochemical; conditions: test compound 1 μM, [14C] cholesterol 15 μM, 37° C., 5 hr, read-out: Inhibitory Rate (%) in 1 μM
parameter: inhibition at 1 µM (%)

>>> reported_measurement("O=C(c1cnc2c(-c3cn[nH]c3)cc(C(F)(F)F)cn12)N1C[C@@H]2C[C@H]1CO2")
71
>>> reported_measurement("CN(C(=O)c1cnc2c(-c3cnco3)cc(C(F)(F)F)cn12)C1CCOCC1")
92
>>> reported_measurement("O=C(c1cnc2c(-c3cnco3)cc(C(F)(F)F)cn12)N1CCCC1")
89
>>> reported_measurement("O=C(c1cnc2c(-c3cnco3)cc(F)cn12)N1C2CCC1COC2")
82
>>> reported_measurement("O=C(c1cnc2c(-c3cnco3)cc(C(F)(F)F)cn12)N1C2COCC1COC2")
94
>>> reported_measurement("CCOC(=O)c1cnc2c(-c3cnco3)cc(C(F)(F)F)cn12")
86
>>> reported_measurement("O=C(c1cnc2c(-c3cnco3)cc(C(F)(F)F)cn12)N1CCOCC1")
87
>>> reported_measurement("O=C(NCc1ccccc1)c1nnc2c(-c3cnco3)cc(C(F)(F)F)cn12")
89
>>> reported_measurement("Cc1cc(-c2cnco2)n2ncc(C(=O)N3C[C@@H]4C[C@H]3CO4)c2c1")
93
>>> reported_measurement("O=C(c1cnc2c(-c3cnco3)cc(C(F)(F)F)cn12)N1C2COCC1C2")
95
>>> reported_measurement("O=C(c1cnc2c(-c3cnco3)cc(C(F)(F)F)cn12)N1CC[C@H](O)C1")
94
>>> reported_measurement("O=C(c1cnc2c(-c3cnco3)cc(C3CC3)cn12)N1C[C@@H]2C[C@H]1CO2")
90
>>> reported_measurement("O=C(c1cnc2c(-c3cnco3)cc(C(F)(F)F)cn12)N1C[C@@H]2C[C@H]1CO2")
88
>>> reported_measurement("O=C(c1cnc2c(-n3cncn3)cc(C(F)(F)F)cn12)N1C2CCC1COC2")
87
>>> reported_measurement("Cc1cc(-c2cnco2)c2ncc(C(=O)N3C[C@@H]4C[C@H]3CO4)n2c1")
94
>>> reported_measurement("O=C(c1cnc2c(-n3cncn3)cc(C(F)(F)F)cn12)N1C[C@@H]2C[C@H]1CO2")
86
>>> reported_measurement("O=C(c1nnc2c(-c3cnco3)cc(C(F)(F)F)cn12)N1C[C@@H]2C[C@H]1CO2")
80

// provenance: patent US9296746B2
